Listed below: Emax values for each entry.
- Target or system: human opioid δ receptor (Homo sapiens, UniProt P41143)
- Construct: host or cells: CHO cells
- Sequence (P41143 whole entry): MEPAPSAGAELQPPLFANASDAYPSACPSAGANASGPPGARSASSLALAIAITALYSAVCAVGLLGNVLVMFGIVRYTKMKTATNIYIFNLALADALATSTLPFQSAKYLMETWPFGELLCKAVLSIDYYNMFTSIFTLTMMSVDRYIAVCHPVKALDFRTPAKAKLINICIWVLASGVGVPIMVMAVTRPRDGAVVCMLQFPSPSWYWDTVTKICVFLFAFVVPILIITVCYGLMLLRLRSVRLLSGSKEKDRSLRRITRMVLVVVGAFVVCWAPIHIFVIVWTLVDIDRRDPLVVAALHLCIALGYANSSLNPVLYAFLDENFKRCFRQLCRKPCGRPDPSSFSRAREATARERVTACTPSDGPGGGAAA
- Protocol text: Opioid receptor function test (Lance Ultra cAMP Kit), δ receptor
- Type: cell-based
- Conditions: ratio to maximum reaction of control drug SNC80 (100%)
Structures can show the parent of a compound that is named as a salt.
Quantity name: Emax

- Compound: "O=C([C@H]1CCCNC1)N1C[C@H]2C[C@@]34CC[C@@H]1[C@@H]2[C@@]31CCN(CC2CC2)[C@@H]4Cc2ccc(O)cc21 [Example 6, dihydrochloride]"
  Quantity name: "Emax"
  Obs value: "74%"
- Compound: "CN1CCC[C@@H]1C(=O)N1C[C@H]2C[C@@]34CC[C@@H]1[C@@H]2[C@@]31CCN(CC2CC2)[C@@H]4Cc2ccc(O)cc21"
  Quantity name: "Emax"
  Obs value: "64%"
- Compound: "O=C([C@H]1CCCN1)N1C[C@H]2C[C@@]34CC[C@@H]1[C@@H]2[C@@]31CCN(CC2CC2)[C@@H]4Cc2ccc(O)cc21 [Example 2, dihydrochloride]"
  Quantity name: "Emax"
  Obs value: "95%"
- Compound: "O=C([C@H]1CCCO1)N1C[C@H]2CC34CCC1C2C31CCN(CC2CC2)C4Cc2ccc(O)cc21 (stereo partly drawn)"
  Quantity name: "Emax"
  Obs value: "85%"
- Compound: "O=C1CC[C@H](C(=O)N2C[C@H]3C[C@@]45CC[C@@H]2[C@@H]3[C@@]42CCN(CC3CC3)[C@@H]5Cc3ccc(O)cc32)O1"
  Quantity name: "Emax"
  Obs value: "70%"
- Compound: "O=C([C@H]1CCCCN1)N1C[C@H]2C[C@@]34CC[C@@H]1[C@@H]2[C@@]31CCN(CC2CC2)[C@@H]4Cc2ccc(O)cc21 [Example 4, dihydrochloride]"
  Quantity name: "Emax"
  Obs value: "82%"

Entry source: patent US20210371422A1
